Where these numbers come from: patent US20090018317A1

assay: Alkali-resistant solubility test (filtration of dyestuff in alkali solution); assay type: physicochemical; conditions: aqueous alkali solution (Na2SiO2 and NaOH), aqueous buffer; Na2SiO2 50°Be′ = 100 g/L, NaOH 38°Be′ = 30 ml/L; filtered through No. 1 filter paper
OBSERVABLE: solubility

Record summary for CCN(c1cccc(S(=O)(=O)CCOS(=O)(=O)O)c1)c1nc(Nc2cc(S(=O)(=O)O)cc3c2[O][Cu-]24[O]C(=O)c5ccc(S(=O)(=O)O)cc5[N]2N=C(c2ccccc2)N=[N+]34)nc(SCC(=O)O)n1 (stereo not shown) : reported solubility = > 70 mg/mL
